Molecular target: PI3Kγ (Mus musculus)
Sequence (Q9JHG7 whole entry): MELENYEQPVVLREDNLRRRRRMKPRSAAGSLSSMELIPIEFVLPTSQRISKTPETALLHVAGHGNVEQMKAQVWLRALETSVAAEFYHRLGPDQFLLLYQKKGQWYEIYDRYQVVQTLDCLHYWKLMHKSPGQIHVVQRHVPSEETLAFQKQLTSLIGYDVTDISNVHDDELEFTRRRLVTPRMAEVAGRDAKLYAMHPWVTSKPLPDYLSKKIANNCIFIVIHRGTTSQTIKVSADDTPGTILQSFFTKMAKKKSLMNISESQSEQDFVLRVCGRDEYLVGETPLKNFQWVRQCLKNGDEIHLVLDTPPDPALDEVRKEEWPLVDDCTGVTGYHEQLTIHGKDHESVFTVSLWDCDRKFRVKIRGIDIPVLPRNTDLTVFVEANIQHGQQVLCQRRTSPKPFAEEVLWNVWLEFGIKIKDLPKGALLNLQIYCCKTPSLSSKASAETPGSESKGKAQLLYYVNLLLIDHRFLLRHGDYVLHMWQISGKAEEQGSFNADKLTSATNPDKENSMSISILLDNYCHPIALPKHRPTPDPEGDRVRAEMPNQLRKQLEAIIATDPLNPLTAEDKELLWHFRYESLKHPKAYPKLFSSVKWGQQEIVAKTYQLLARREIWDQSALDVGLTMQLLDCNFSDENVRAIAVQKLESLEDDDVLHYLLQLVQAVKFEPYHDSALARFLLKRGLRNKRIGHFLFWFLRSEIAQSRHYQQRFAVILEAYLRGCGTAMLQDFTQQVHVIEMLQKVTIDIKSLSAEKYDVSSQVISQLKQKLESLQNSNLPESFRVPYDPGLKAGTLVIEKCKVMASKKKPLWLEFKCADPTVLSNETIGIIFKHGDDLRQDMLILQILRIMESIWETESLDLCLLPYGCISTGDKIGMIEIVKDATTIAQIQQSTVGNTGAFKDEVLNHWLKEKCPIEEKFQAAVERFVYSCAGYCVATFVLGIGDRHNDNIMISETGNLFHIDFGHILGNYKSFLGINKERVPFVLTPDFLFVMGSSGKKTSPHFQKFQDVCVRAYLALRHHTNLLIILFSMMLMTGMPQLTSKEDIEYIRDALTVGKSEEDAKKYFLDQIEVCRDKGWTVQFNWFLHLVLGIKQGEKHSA
Experiment: Acumen Assay - Raw264.7 p-AKT Assay (C5a stimulated)
Settings: Raw264.7 macrophage cells, compound 30 min, stimulated with 10 nM C5a for 5 min, p-AKT (Ser473) readout; read-out: PI3Kγ cell-C5a Raw264.7 IC50
Binary call on IC50 with cut-off 50 nM: strictly below means YES, and equality or higher means NO.

Here are 5 compounds together with their reported answers.
compound="CC(=O)c1cnc(N)nc1N1C[C@H](C)[C@H]1c1nn2ccc(Cl)c2c(=O)n1-c1ccccc1 [Compound 301]" studytarget="PI3Kγ (Mus musculus)" classname=YES
compound="C[C@H]1CN(c2nc(N)nc(N)c2C#N)[C@@H]1c1nn2ccc(Cl)c2c(=O)n1-c1ccccc1 [Compound 481]" studytarget="PI3Kγ (Mus musculus)" classname=YES
compound="Cc1nc(N)nc(N2C[C@H](C)[C@H]2c2nn3ccc(Cl)c3c(=O)n2-c2cccc(F)c2)c1C#N [Compound 461]" studytarget="PI3Kγ (Mus musculus)" classname=YES
compound="Cc1nc(N)nc(N2C[C@H](C)[C@H]2c2nn3ccc(F)c3c(=O)n2-c2cccc(F)c2)c1C#N [Compound 462]" studytarget="PI3Kγ (Mus musculus)" classname=NO
compound="CC(=O)c1cnc(N)nc1N1C[C@H](C)[C@H]1c1nn2ccc(C(F)(F)F)c2c(=O)n1-c1ccccc1 [Compound 489]" studytarget="PI3Kγ (Mus musculus)" classname=YES

Consider the record given below.
Qu. Problem: For the compound Cc1nc(N)nc(N2CCC2c2nn3ccc(Cl)c3c(=O)n2-c2ccccn2)c1C#N (stereo not drawn) [Compound 475] , is IC50 under 50 nM?
Ans. NO
